Assign Dmax p38α (maximum percentage of degradation) to each entry below.
Biological target: p38α (Homo sapiens, UniProt Q16539)
Construct: SJFα PROTAC (13-atom linker, amide attachment) selectively degrades p38α; endogenous in cells; host or cells: MDA-MB-231
Sequence (Q16539 whole entry): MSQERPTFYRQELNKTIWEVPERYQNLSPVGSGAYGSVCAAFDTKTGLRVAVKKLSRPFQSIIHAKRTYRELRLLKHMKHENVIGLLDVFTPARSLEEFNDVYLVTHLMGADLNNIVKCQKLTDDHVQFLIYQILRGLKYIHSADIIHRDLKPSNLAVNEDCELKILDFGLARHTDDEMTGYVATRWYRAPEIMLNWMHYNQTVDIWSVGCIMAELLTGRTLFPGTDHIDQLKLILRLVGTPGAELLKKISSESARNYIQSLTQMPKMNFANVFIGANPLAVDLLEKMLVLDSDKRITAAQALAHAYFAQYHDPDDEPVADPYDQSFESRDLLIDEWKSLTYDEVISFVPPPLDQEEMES
Experiment: PROTAC-induced p38α degradation, western blot in MDA-MB-231 cells
Assay type: cell-based
Conditions: 0.025-5.0 µM survey, ± one s.d., Supplementary Table 1
Express the result in % but write the number alone.

Problem: # get_value(readout='Dmax p38α (maximum percentage of degradation)', item= `COc1cc2c(Oc3ccc(NC(=O)C4(C(=O)Nc5ccc(F)cc5)CC4)cc3F)ccnc2cc1OCCCOCCCOCCC(=O)N[C@H](C(=O)N1C[C@H](O)C[C@H]1C(=O)NCc1ccc(-c2scnc2C)cc1)C(C)(C)C` )
Result: 90.1

Problem: # get_value(readout='Dmax p38α (maximum percentage of degradation)', item= COc1cc2c(Oc3ccc(NC(=O)C4(C(=O)Nc5ccc(F)cc5)CC4)cc3F)ccnc2cc1OCCOCCOCCC(=O)N[C@H](C(=O)N1C[C@H](O)C[C@H]1C(=O)NCc1ccc(-c2scnc2C)cc1)C(C)(C)C [SJF-6693] )
Result: 92.6

Problem: # get_value(readout='Dmax p38α (maximum percentage of degradation)', item= COc1cc2c(Oc3ccc(NC(=O)C4(C(=O)Nc5ccc(F)cc5)CC4)cc3F)ccnc2cc1OCCCOCCOCCCOc1cc(-c2scnc2C)ccc1CNC(=O)C1CC(O)CN1C(=O)C(C(C)C)N1Cc2ccccc2C1=O (stereo not shown) [BES-4612] )
Result: 16.8

Problem: # get_value(readout='Dmax p38α (maximum percentage of degradation)', item= COc1cc2c(Oc3ccc(NC(=O)C4(C(=O)Nc5ccc(F)cc5)CC4)cc3F)ccnc2cc1OCCCOCCOCCC(=O)N[C@H](C(=O)N1C[C@H](O)C[C@H]1C(=O)NCc1ccc(-c2scnc2C)cc1)C(C)(C)C [SJF-6690] )
Result: 99.4

Where do the numbers come from? From paper PMC6328587.
